# Tested on: OVCAR-8 ovarian
# Method Description: NCI tumour cell line growth inhibition, 48 h
Entries and their TGI values follow.

CC1=NN(c2ccccc2)C(=O)C1N=Nc1ccc(S(N)(=O)=O)cc1 (configuration not stated) ... > 100 µM
O=C(O)c1cc(=O)c2cc(C(=O)c3cccs3)c(Cl)c(Cl)c2o1 ... > 100 µM
CN(C)N=Nc1nn(C(=O)Nc2ccc(Cc3ccccc3)cc2)c2ccccc12 ... > 100 µM
O=C(CN1C(=O)S/C(=C\C(Cl)=C\c2ccccc2)C1=O)NCCCn1ccnc1 ... > 100 µM
CC(=O)Nc1nnc(S(=O)(=O)NC(=S)Nc2ccc(Cl)cc2)s1 ... > 100 µM
COc1nc(C)nc2c1ncn2Cc1ccccc1 ... > 100 µM
CCOC(=O)c1cn(CC)c2cc3c(cc2c1=O)SCS3 ... > 100 µM
O=C1/C(=C\c2ccccc2)c2ccccc2N1/N=C\c1ccccc1 ... > 100 µM

Consider the compound shown here: `CC1=NN(C(=O)c2nn(-c3ccc(Cl)cc3)cc2O)C(=O)C1` What is its recorded TGI? > 100 µM

Please report the recorded TGI for `Nc1ccccc1C#C/C=C\C#Cc1ccccc1F` . 67.7 µM

Form field: reported TGI of `O=C1c2ccn(CCCCN(CCO)CCO)c2C(=O)c2c1c(O)c1ccccc1c2O` > 100 µM

# get_value(readout='TGI', item= `c1ccc2c(CN3CCC(C4CCN(Cc5cccc6ccccc56)CC4)CC3)cccc2c1` ) > 72.4 µM

Which TGI is reported for this compound? `COc1ccccc1N1C(=O)CC(=O)N(C(=O)CCCCCCCCC(=O)N2C(=O)CC(=O)N(c3ccccc3OC)C2=S)C1=S` > 100 µM

For CCCCN(CCCC)CCC(O)c1cc2ccc(C(F)(F)F)cc2c2cc(C(F)(F)F)ccc12 (configuration not stated) , what is its reported TGI? 4.25 µM

Given the entry COC(=O)C1=C(c2ccc(Cl)cc2)C(O)N=C(NN)N1 (configuration not stated) , report its measured TGI. > 100 µM

// lookup TGI for `COc1cc2c(cc1OCCCCCn1c3ccccc3c3ccccc31)N=C[C@@H]1CCCN1C2=O` 7.17 µM

Give the measured TGI of `CN(CCCN(C)CCC1CCCCC1)CCC1CCCCC1` . 18.4 µM

May I ask what TGI has been recorded for CC(Nc1n[nH]c(=O)c2c1nnn2Cc1ccccc1)c1ccccc1 (configuration not stated) ? > 100 µM

Item `O=C(O)CCc1nc2cc3ccccc3cc2[nH]c1=O` has what recorded TGI? > 100 µM

TGI for `CC(=O)Oc1cc(S(=O)(=O)Nc2n[nH]c(N)n2)c(S)cc1Cl` ? > 100 µM

Given the compound `COc1ccc(/C=C(\Cl)c2ccc(OC)cc2)cc1` , what is its reported TGI? > 100 µM

# input compound: `NC(=O)N/N=C(\CCC(=O)N(Cc1ccccc1)Cc1ccccc1)CC(=O)c1ccc(F)cc1` ; wanted: its TGI > 100 µM

----------
# Test system: M14 melanoma
# Method Description: NCI tumour cell line growth inhibition, 48 h
Measurement Name: TGI

Oc1ccc(O)c2c1C1(Cl)C(Cl)=C(Cl)C2(Cl)C1(Cl)Cl ... 12 µM

Reported TGI, compound `O=C1Cc2ccccc2CCc2ccsc21` : ____ > 100 µM

----------
# Test system: HOP-62 NSCLC
# Method Description: NCI tumour cell line growth inhibition, 48 h
Measurement Name: GI50

O=C1c2ccn(CCCCN(CCO)CCO)c2C(=O)c2c1c(O)c1ccccc1c2O ... 16300 nM
NCCSC(C[N+](=O)[O-])c1ccccc1Cl (stereo not given) ... 8090 nM
O=C1COCCN1c1ccc(NCc2cn(C(=O)c3ccc(Cl)cc3)c3ccccc23)cc1 ... 1060 nM
CC1=NN(C(=O)c2nn(-c3ccc(Cl)cc3)cc2O)C(=O)C1 ... 1130 nM

Lab note: next compound to report on.
# get_value(readout='GI50', item= `C=C1C(=O)O[C@H]2[C@H]1CC/C(CNC(=O)/C=C/c1ccc(Cl)cc1Cl)=C\CC[C@@]1(C)O[C@@H]21` ) 1740 nM

----------
# Test system: HS 578T breast
# Method Description: NCI tumour cell line growth inhibition, 48 h
Listing of entries alongside the reported TGI.

CSc1nc(-c2ccc(Cl)cc2)c(C#N)c(=O)[nH]1 ... > 100 µM
Cn1c2ccccc2c2[nH]c3ccccc3c(=O)c21 ... > 100 µM
C#CC(O)Cc1ccc(OC)c2occc12 (configuration not stated) ... > 100 µM
CC(=O)C1C(=O)C(=O)N(c2ccc(Br)cc2)C1=O (configuration not stated) ... > 100 µM
Cc1ccc(-n2cc(-c3ccc(Cl)cc3)c(C#N)c2N)cc1 ... 17.2 µM
CC(=O)/C(=C(/Br)I)c1ccccc1 ... > 66 µM

So what does the record say about TGI for `O=C1Nc2ccc(Br)cc2/C1=C/C(=O)c1ccccc1` ? > 55.4 µM

Fill blank: measured TGI of the compound `CCC(=O)c1c(C(F)(F)F)n([O-])c2ccccc2[n+]1=O` is ____. 30.5 µM

Fill blank: measured TGI of the compound `c1cc(C[S+]2CCCC2)oc1C[S+]1CCCC1` is ____. > 100 µM

What value of measured TGI is listed for `COc1cc2nncc(SCc3ccc(Cl)c(Cl)c3)c2cc1OC` ? > 100 µM

Could you share which TGI value was measured for `COc1cc(-c2oc3c(OC)c(O)cc(O)c3c(=O)c2OC)ccc1O` ? 6.83 µM

Could you share which TGI value was measured for `O=C(O)CO/N=C1/C(c2c(O)[nH]c3ccccc23)=Nc2ccccc21` ? > 100 µM

Using the record for `CC(=O)Oc1cc(S(=O)(=O)Nc2n[nH]c(N)n2)c(S)cc1Cl` , report its TGI. > 100 µM

Look up TGI for this compound: `Cc1cc(-c2ccc(C(=O)C(c3ccccc3)(c3ccccc3)c3ccccc3)[nH]2)on1` > 100 µM

Record request: TGI value, item `CN(CCCN(C)CCC1CCCCC1)CCC1CCCCC1` 6.68 µM

----------
# Test system: ACHN renal
# Method Description: NCI tumour cell line growth inhibition, 48 h
Measurement Name: TGI

BrC1=CN2C[n+]3cc(Br)c4ccccc4c3N=C2c2ccccc21 ... 34.7 µM
COc1ccc(/C=N\O[Si](C)(C)C(C)(C)C)cc1O[Si](C)(C)C(C)(C)C ... 33.3 µM
COC(=O)C1=C(c2ccc(Cl)cc2)C(O)N=C(NN)N1 (configuration not stated) ... > 100 µM
CN(C)C(=S)SCC(N)=O ... > 100 µM
O=CN1N=C(c2ccc(Nc3ccnc4cc(Cl)ccc34)cc2)CC1c1ccc(Cl)cc1 (configuration not stated) ... > 100 µM

Look at this compound and give its reported TGI. `c1cc(C[S+]2CCCC2)oc1C[S+]1CCCC1` > 100 µM

Please give the measured TGI for this compound: `CNc1ncc2cc(Oc3ccc(F)cc3F)c(=O)n(C)c2n1` > 25 µM

I would be grateful if you could share the reported TGI for `CCCCCCCCCCCCCCCCCc1nnc(N)o1` . > 100 µM

Name the reported TGI value associated with the compound `Cc1ccc(-n2cc(-c3ccc(Cl)cc3)c(C#N)c2N)cc1` 50 µM

Param item = COC(=O)C1C(/C=C/c2ccoc2)ON2CCC[C@@H]12 (some centres not stated) ; retrieve measured TGI. > 100 µM

Can you share its TGI? I mean this compound: COc1ccc(C2C(Cl)C(=O)N2NC(=O)c2ccccc2O)cc1OC (configuration not stated) > 100 µM

Given `O=C1C(NS(=O)(=O)c2ccccc2)=C(N(Cc2ccccc2)Cc2ccccc2)C(=O)c2ccccc21` , state its recorded TGI. > 100 µM

Request the reported TGI associated with `CC1=C(C)C(=O)C(C2=C(C3=CC(=O)C(C)=C(C)C3=O)C(=O)c3ccccc3C2=O)=CC1=O` 6.71 µM

For the compound shown here, C[N+]12CCCCC1C(CN1C(=O)c3ccccc3C1=O)CCC2 (configuration not stated) , give the reported TGI. > 100 µM

So what does the record say about TGI for `NNC(=S)N/N=C(/C(=O)Nc1ccc([N+](=O)[O-])cc1)c1nc2ccc([N+](=O)[O-])cc2[nH]c1=O` ? > 100 µM

Item under review: `CSc1nc(-c2ccc(Cl)cc2)c(C#N)c(=O)[nH]1` . Reported TGI? > 100 µM

Bench note: what TGI did CCSC12CC3c4cccc5c4C(CN5C(=O)c4ccccc4)CC3(O1)N(C)C2=O (configuration not stated) show? > 100 µM

I'd like to know its TGI. The compound in question is `CN(C)N=Nc1nn(C(=O)Nc2ccc(Cc3ccccc3)cc2)c2ccccc12` > 100 µM

Find the recorded TGI belonging to O=C1c2c(ccc3c2CCCC3)CC1Cc1ccc2c(c1)CCCC2 (configuration not stated) and report it. > 100 µM

// TGI lookup, key: `Cc1cc(Cl)ccc1NC(=O)C(=O)Cc1occc(=O)c1O` > 100 µM

Dear colleague, I am looking for the recorded TGI of the following compound: `Cc1ccc(S(=O)(=O)Nc2cc(Sc3ccccc3)c(O)c3ccccc23)cc1` 10.4 µM

TGI for CCSC(=O)C1(C)OC2CCCCC2C1=O (configuration not stated) ? > 100 µM

Provenance of the data: PubChem BioAssay (NCI)
